assay.method.text: NCI Yeast Anticancer Drug Screen. Data for the mec2-1 strain (AID 157)
test.conditions: S. cerevisiae mec2-1 strain; at 50.0 µM unless noted
This is part of a sample that, as a whole, favours compounds with a hit. Of some 79,000 tested, about 15% had one in any assay. Calls of active or inactive are those of the source. Rule as the data show it: active = growth inhibition above about 70%; inactive = the rest.
Would you mind answering with one of these outcomes? true for active, false for inactive

Exercise: Hello, I am checking results. What call was entered for CC(C)=CC(=O)CNC(N)=S ?
Key: false

Exercise: Hello, I am checking results. What call was entered for CN=c1ss/c(=N\C(=S)N(C)C)n1C1CCCCC1 ?
Key: false

Exercise: Hello, I am checking results. What call was entered for COC(=O)CCc1ccco1 ?
Key: false

* * *

Property: growth inhibition; scope: individual compounds
assay.method.text: NCI Yeast Anticancer Drug Screen. Data for the bub3 strain (AID 167)
test.conditions: S. cerevisiae bub3 mutant strain, hits give high values; at 50.0 µM unless noted
This is part of a sample that, as a whole, favours compounds with a hit. Of some 79,000 tested, about 15% had one in any assay.
Your answer is read as %, so omit the unit and give the number.

For orientation, consider the following solved cases.
compound=COc1ccc(-c2cccc(C(=O)O)c2C(=O)O)cc1OC assay_endpoint="growth inhibition" units=% quantitative_readout=-7.4
compound=O=C(O)c1ccc(/C=N/N=C2c3ccccc3-c3ccccc32)cc1 assay_endpoint="growth inhibition" units=% quantitative_readout=-4.5
compound=CSC(=Nc1ccccc1Cl)NC(=O)c1ccc(Br)cc1 assay_endpoint="growth inhibition" units=% quantitative_readout=7.8
compound="CC1CCCN1CCOC(=O)C(c1ccccc1)C1CCCC1 (stereo unspecified)" assay_endpoint="growth inhibition" units=% quantitative_readout=3.3
compound=c1ccc(CN2CCOC2)cc1 assay_endpoint="growth inhibition" units=% quantitative_readout=-2.2

Alright, here's another compound for you.
Exercise: Data request, read-out growth inhibition, for Cc1cc(C)nc(NS(=O)(=O)c2ccc(NC(=O)c3cccc4c(Nc5ccc(S(=O)(=O)Nc6nc(C)cc(C)n6)cc5)c5ccc(Cl)cc5nc34)cc2)n1
Key: 19.6

* * *

assay.method.text: NCI Yeast Anticancer Drug Screen. Data for the cln2 rad14 strain (AID 165);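 also: 0% = growth equal to vehicle treated cultures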
test.conditions: S. cerevisiae cln2 rad14 strain, hits give high values; at 50.0 µM unless noted
This is part of a sample that, as a whole, favours compounds with a hit. Of some 79,000 tested, about 15% had one in any assay.
growth inhibition vs 20%: at or above is satisfied, below is not satisfied.

Check out these entries, answers already filled in.
molecule="CC1CC[N+](C)(CC(=O)c2ccc(-c3ccc(C(=O)C[N+]4(C)CCC(C)CC4)cc3)cc2)CC1 (stereo unspecified)" class_label=satisfied
molecule=N#Cc1c(O)c(N=Nc2ccc(Cl)cc2)c(=O)n2c1[nH]c1ccccc12 class_label=satisfied
molecule=CN(C)CC[N+]1=Nc2cccc3cccc(c23)N1 class_label="not satisfied"
molecule=O=C(O)c1cccc(S(=O)(=O)c2ccc([N+](=O)[O-])cc2)c1 class_label="not satisfied"
molecule=Nc1ccc(C(=O)N/N=C/c2ccccc2O)cc1 class_label="not satisfied"

Now turn to the next molecule.
Exercise: Is growth inhibition for CC(=O)NC(C)c1ccccc1 (stereo unspecified) at or above 20%?
Key: not satisfied

* * *

assay.method.text: NCI Yeast Anticancer Drug Screen. Data for the rad50 strain (AID 155);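 also: 0% = growth of vehicle-only cultures of the same strain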
test.conditions: S. cerevisiae rad50 strain growth inhibition, hits give high values; at 50.0 µM unless noted
Compounds without any hit were thinned out: in the full panel of roughly 79,000, 15% have a hit.
assay.endpoint: growth inhibition (%)
Your answer is read as %, so omit the unit and give the number.

For orientation, consider the following solved cases.
molecule="Clc1ccccc1C1SCc2nc3ccccc3n21 (stereo unspecified)" assay_endpoint="growth inhibition" quantitative_readout=10.8
molecule=O=c1ccc(-c2ccc(-n3ccnc3)cc2)nn1CCO assay_endpoint="growth inhibition" quantitative_readout=-39.4
molecule=O=c1c2ccccc2[nH]c(=S)n1C1CCCC1 assay_endpoint="growth inhibition" quantitative_readout=-7.85

Exercise: Data request, read-out growth inhibition, for CCCCCCCCCCSCC(=O)O
Key: -12.8

Exercise: Data request, read-out growth inhibition, for Cc1ccc(N(C)S(=O)(=O)c2ccccc2[N+](=O)[O-])cc1
Key: 19.1

Exercise: Data request, read-out growth inhibition, for CC(=O)NC1=NC(=O)/C(=C/c2ccc3c(c2)OCO3)N1C
Key: 4.7

Exercise: Data request, read-out growth inhibition, for O=C1NCC(CCl)O1 (stereo unspecified)
Key: 8.3

Exercise: Data request, read-out growth inhibition, for CCSC(=O)C(F)(F)F
Key: -9.95

Exercise: Data request, read-out growth inhibition, for Cc1noc(NS(=O)(=O)c2ccc(Nc3nc(CC(=O)Nc4ccccc4)cs3)cc2)c1C
Key: 18.4

Exercise: Data request, read-out growth inhibition, for O=Nc1ccc2ccccc2c1N=Nc1ccccc1C(=O)O
Key: 20.5

Exercise: Data request, read-out growth inhibition, for CSc1nc(SC)c2cnn(CC3CO3)c2n1 (stereo unspecified)
Key: 44.2
